organism: Mus musculus; test: Protective index, ratio of TD50 for neurotoxicity in Kunming mouse to ED50 for inhibition of MES-induced seizures in Kunming mouse; type: functional
measure: Ratio TD50/ED50
Number only, no unit.

Before answering, review these 10 worked examples.
- molecule: "NC(=O)N1c2ccccc2C=Cc2ccccc21 [CARBAMAZEPINE]"
  quantitative-readout: 6.4
- molecule: "O=C1CC(c2cccc(C(F)(F)F)c2)n2ncnc2N1 (centres undefined)"
  quantitative-readout: 2.9
- molecule: "O=C1CC(c2ccccc2F)n2ccnc2N1 (centres undefined)"
  quantitative-readout: 4.4
- molecule: "O=C1CC(c2ccccc2Br)n2ncnc2N1 (centres undefined)"
  quantitative-readout: 34.8
- molecule: "O=C1CC(c2ccccc2F)n2nccc2N1 (centres undefined)"
  quantitative-readout: 2.5
- molecule: "O=C1CC(c2ccccc2)n2nccc2N1 (centres undefined)"
  quantitative-readout: 2.5
- molecule: "O=C1CC(c2ccccc2F)n2ncnc2N1 (centres undefined)"
  quantitative-readout: 14.4
- molecule: "O=C1CC(c2ccccc2)n2ccnc2N1 (centres undefined)"
  quantitative-readout: 6.7
- molecule: "O=C1CC(c2cccc(Br)c2)n2ncnc2N1 (centres undefined)"
  quantitative-readout: 7
- molecule: "O=C1CC(c2ccccc2Cl)n2ncnc2N1 (centres undefined)"
  quantitative-readout: 18.2

# return recorded Ratio TD50/ED50 for input O=C1CC(c2ccccc2Cl)n2nccc2N1 (centres undefined) 1.5

# return recorded Ratio TD50/ED50 for input O=C1CC(c2ccccc2)n2ncnc2N1 (centres undefined) 10.5

# return recorded Ratio TD50/ED50 for input O=C1CC(c2cccc(Cl)c2)n2ncnc2N1 (centres undefined) 11.2

# return recorded Ratio TD50/ED50 for input O=C1CC(c2ccccc2Br)n2nccc2N1 (centres undefined) 3.4
